target: Protein translocase subunit SecA (Escherichia coli (strain K12)); assay: Assay to Identify E. coli SecA ATPase Inhibitors; assay type: functional; design: scale not given: direction of the effect not stated beside the values; settings: 30 µM
Results with a measured potency or affinity are listed apart.
Reported Percent Effect is given for each of the following compounds.
Quick reminder: number only, in %, skip the unit.

CN(C)C(=O)Cc1nc(CN2CCOC(Cn3cccn3)C2)cs1 (stereo not given): 1.53
CCCNC(=O)c1sccc1N(C)S(=O)(=O)c1ccc(Cl)cc1: 1.13
CC(C)c1nc(C(=O)NCCn2ccnc2)nn1-c1cccc(F)c1: -6
Cc1nnc2n1CCN(Cc1ncc(-c3ccc(Cl)cc3)o1)C2: -5
CCOc1cccc(NS(=O)(=O)c2cc(C)c(C(=O)O)s2)c1: -6.74
CNC(=O)c1nc2c(s1)CCN(C(=O)Cc1ccc(OC)cc1)CC2: -7.69
CCc1nc(CN2CCCN(c3ncnc4ccccc34)CC2)no1: 0.435
Cn1cc(C(=O)NC[C@@H]2OC[C@H]3CN(Cc4ccco4)CC[C@H]32)cn1: 1.17

Item under review: Cc1cc(C)n(CC2CN(Cc3nnsc3Cl)CCO2)n1 (stereo not given) . Reported Percent Effect?
-1.37

And then CN(C)S(=O)(=O)N1CC[C@@H]2CN(Cc3cnn(C)c3)C[C@@H]2C1 , what is it?
-6.2
